tested on: Renilla luciferase (RLuc); assay: residual bioluminescent signal relative to negative (DMSO) control; higher = less interference (more residual luciferase signal); conditions: metal salt concentration 1 mM; screening conditions (50 mM Tris-HCl, […] KH2PO4, […] NaCl, 0.25 mM EDTA, 0.1% BSA, 0.3 M sodium ascorbate, pH 7.4)
Kindly state residual bioluminescent signal for each of the entries shown.

What the record says about O=[N+]([O-])[O-].O=[N+]([O-])[O-].[Ca+2] [calcium nitrate] : residual bioluminescent signal is 86.7%

The reported value for O=[N+]([O-])[O-].[Na+] [sodium nitrate] in terms of residual bioluminescent signal is 97.6%

Value of residual bioluminescent signal reported for the compound [Cl][Sn][Cl] [tin(II) chloride] is 95.3%

Report residual bioluminescent signal for each item below.
1. O=[N+]([O-])[O-].[K+] [potassium nitrate]
2. O=[N+]([O-])[O-].O=[N+]([O-])[O-].[Pb+2] [lead(II) nitrate]
3. O=[N+]([O-])[O-].O=[N+]([O-])[O-].O=[N+]([O-])[O-].[Al+3] [aluminium nitrate]
4. O=[N+]([O-])[O-].O=[N+]([O-])[O-].[Cu+2] [copper(II) nitrate]

OUT:
["108%", "69.9%", "90.2%", "0.583%"]

###

For each of the molecules below, state its residual bioluminescent signal.
test system: Renilla luciferase (RLuc); experiment: residual bioluminescent signal relative to negative (DMSO) control; higher = less interference (more residual luciferase signal); details: metal salt concentration 0.01 mM; screening conditions (50 mM Tris-HCl, […] KH2PO4, […] NaCl, 0.25 mM EDTA, 0.1% BSA, 0.3 M sodium ascorbate, pH 7.4)
Numbers only, in %.

Here are 6 molecules together with their reported answers.
get_value(item= O=[N+]([O-])[O-].[Na+] [sodium nitrate] , readout=residual bioluminescent signal) returns 101

residual bioluminescent signal recorded for this molecule, O=[N+]([O-])[O-].O=[N+]([O-])[O-].[Cu+2] [copper(II) nitrate] , is 104

The reported value for [Cl][Sn][Cl] [tin(II) chloride] in terms of residual bioluminescent signal is 96.3

The reported value for O=[N+]([O-])[O-].O=[N+]([O-])[O-].[Zn+2] [zinc nitrate] in terms of residual bioluminescent signal is 96.8

Value of measured residual bioluminescent signal for the entry O=[N+]([O-])[O-].[K+] [potassium nitrate] : 101

Lab note: measured residual bioluminescent signal of O=[N+]([O-])[O-].[Li+] [lithium nitrate] was 87.4

As a next step, examine the molecule that follows.
Record O=[N+]([O-])[O-].O=[N+]([O-])[O-].[Pb+2] [lead(II) nitrate] , field residual bioluminescent signal: 112

Recorded values, source the supplement of paper PMC11628255.
